Entry source: patent US20230150951A1

test system: IL-6; test: Cytokine release after LPS induction on human whole blood: IL-6; type: cell-based; conditions: Homo sapiens, read-out: IC50 IL-6
PROPERTY_LABEL: pIC50
pIC50 is a log-scale quantity: -log10 of the concentration expressed in molar.

Note to self: pIC50 recorded for O=C(O)c1cc(NC(=O)c2cc(O)c(C(=O)Nc3ccccc3-c3nnn[nH]3)cc2O)ccc1O [Ic-001a-Tz/004a] was 5.52

====

Field: % of reduction, CD4+ lymphocytes, treated over vehicle treated mice. Provide a value for each of the molecules that follow.
tested on: thioglycolate-induced peritonitis; experiment: Thioglycolate-induced peritonitis murine model; type: in vivo, C57BL/6J mice; settings: 50 mg/kg i.p. 1 h prior to thioglycolate
The reply should be a number in %, with the unit left off.

Note to self: % of reduction, CD4+ lymphocytes, treated over vehicle treated mice recorded for O=C(O)c1cc(O)c(CN(Cc2cc(O)c(C(=O)O)cc2O)Cc2cc(O)c(C(=O)O)cc2O)cc1O [IIIc-061a] was 42.9

Note to self: % of reduction, CD4+ lymphocytes, treated over vehicle treated mice recorded for O=C(O)c1cc(NC(=O)c2cc(O)c(C(=O)Nc3ccc(O)c(C(=O)O)c3)cc2O)ccc1O [Ic-007a] was 35

Note to self: % of reduction, CD4+ lymphocytes, treated over vehicle treated mice recorded for O=C(O)c1cc(NC(=O)c2cc(O)cc(C(=O)Nc3ccc(O)c(C(=O)O)c3)c2O)ccc1O [IIc-007a] was 40.0

Note to self: % of reduction, CD4+ lymphocytes, treated over vehicle treated mice recorded for O=C(O)c1cc(O)cc(CS(=O)(=O)Cc2cc(O)cc(C(=O)O)c2O)c1O [IVc-059a] was 6.0
